- procedure.details: Solubilities of clotrimazole and testosterone in different solvents
- applied.conditions: organic solvent or mixture, Solubility, solvent: p-Cymene
quantity: solubility

// query Fill in: solubility of C[C@]12CC[C@H]3[C@@H](CCC4=CC(=O)CC[C@@]43C)[C@@H]1CC[C@@H]2O [Testosterone] is ___
// result < 100 mg/mL

* * *

- procedure.details: Solubilities of clotrimazole and testosterone in different solvents
- applied.conditions: organic solvent or mixture, Solubility, solvent: 20% Thymol/80% Acetone
quantity: solubility (mg/mL)
API: value field is a number in mg/mL; no unit string.

// query Reported solubility, molecule C[C@]12CC[C@H]3[C@@H](CCC4=CC(=O)CC[C@@]43C)[C@@H]1CC[C@@H]2O : ____
// result 180

* * *

- procedure.details: Solubilities of clotrimazole and testosterone in different solvents
- applied.conditions: organic solvent or mixture, Solubility, solvent: Ethanol
quantity: solubility
Express your answer as a number followed by its unit.

// query Field request: solubility | item: C[C@]12CC[C@H]3[C@@H](CCC4=CC(=O)CC[C@@]43C)[C@@H]1CC[C@@H]2O
// result 90 mg/mL

* * *

- procedure.details: Solubilities of clotrimazole and testosterone in different solvents
- applied.conditions: organic solvent or mixture, Solubility, solvent: carvacrol
quantity: solubility (mg/mL)
The figure you give is taken to be in mg/mL; do not add the unit.

// query Recorded solubility of C[C@]12CC[C@H]3[C@@H](CCC4=CC(=O)CC[C@@]43C)[C@@H]1CC[C@@H]2O , please.
// result 230

* * *

- procedure.details: Solubilities of clotrimazole and testosterone in different solvents
- applied.conditions: organic solvent or mixture, Solubility, solvent: Anisole
quantity: solubility

// query Return reported solubility; argument: C[C@]12CC[C@H]3[C@@H](CCC4=CC(=O)CC[C@@]43C)[C@@H]1CC[C@@H]2O [Testosterone]
// result < 100 mg/mL

* * *

- procedure.details: Solubilities of clotrimazole and testosterone in different solvents
- applied.conditions: organic solvent or mixture, Solubility, solvent: 20% Thymol/80% LP (Liqui-Patch)
quantity: solubility (mg/mL)
Give just the number in mg/mL; leave the unit off.

// query Bench note: what solubility did C[C@]12CC[C@H]3[C@@H](CCC4=CC(=O)CC[C@@]43C)[C@@H]1CC[C@@H]2O show?
// result 300

* * *

- procedure.details: Solubilities of clotrimazole and testosterone in different solvents
- applied.conditions: organic solvent or mixture, Solubility, solvent: Gamma-Terpinene
quantity: solubility

// query I would be grateful if you could share the reported solubility for C[C@]12CC[C@H]3[C@@H](CCC4=CC(=O)CC[C@@]43C)[C@@H]1CC[C@@H]2O .
// result < 100 mg/mL

* * *

- procedure.details: Solubilities of active ingredients in carvacrol or carvacrol-containing (or thymol) formulations
- Type: physicochemical
- applied.conditions: solvent: Carvacrol
Measured Dissolved amount, listed per entry.

Solved entries (count: 3):
compound: C[C@]12CC[C@H]3[C@@H](CCC4=CC(=O)CC[C@@]43C)[C@@H]1CC[C@@H]2O
Dissolved amount: 220 mg/mL
//
compound: COc1cc(/C=C/C(=O)CC(=O)/C=C/c2ccc(O)c(OC)c2)ccc1O
Dissolved amount: 20 mg/mL
//
compound: O=c1ccc2ccccc2o1
Dissolved amount: >200 mg/mL

// query Any idea what its Dissolved amount is? The compound is Clc1ccccc1C(c1ccccc1)(c1ccccc1)n1ccnc1
// result 410 mg/mL

// query Which value of Dissolved amount has been reported for C=C(c1ccc(C(=O)O)cc1)c1cc2c(cc1C)C(C)(C)CCC2(C)C in the records?
// result 60 mg/mL

// query Which Dissolved amount reading was recorded for the compound Nc1cc(=O)[nH]c(=O)[nH]1 ?
// result <50 mg/mL

* * *

- procedure.details: Solubilities of active ingredients in carvacrol or carvacrol-containing (or thymol) formulations
- Type: physicochemical
- applied.conditions: solvent: Carvacrol
Structures can show the parent of a compound that is named as a salt.
Measured Dissolved amount values are reported for all entries that follow.
Quick reminder: number only, in mg/mL, skip the unit.

// query # get_value(readout='Dissolved amount', item= O=C(CCCN1CCC(O)(c2ccc(Cl)cc2)CC1)c1ccc(F)cc1 )
// result 100

// query I would be grateful if you could share the reported Dissolved amount for O=C(O)c1cc(=O)c2c(OCC(O)COc3cccc4oc(C(=O)O)cc(=O)c34)cccc2o1 [Cromoglicic acid-Na, Cromoglicic acid disodium salt] .
// result 50

* * *

- procedure.details: Solubilities of clotrimazole and testosterone in different solvents
- applied.conditions: organic solvent or mixture, Solubility, solvent: 20% Gamma-Terpinene/80% ethalol
quantity: solubility (mg/mL)
Form entry: value (mg/mL) — number only.

// query May I ask what solubility has been recorded for C[C@]12CC[C@H]3[C@@H](CCC4=CC(=O)CC[C@@]43C)[C@@H]1CC[C@@H]2O ?
// result 200

* * *

- procedure.details: Solubilities of clotrimazole and testosterone in different solvents
- applied.conditions: organic solvent or mixture, Solubility, solvent: Guaiacol
quantity: solubility (mg/mL)
API: value field is a number in mg/mL; no unit string.

// query Would you kindly share the measured solubility for C[C@]12CC[C@H]3[C@@H](CCC4=CC(=O)CC[C@@]43C)[C@@H]1CC[C@@H]2O ?
// result 270

* * *

- procedure.details: Solubilities of clotrimazole and testosterone in different solvents
- applied.conditions: organic solvent or mixture, Solubility, solvent: 20% 4MS/80% EtOH
quantity: solubility (mg/mL)
Value expressed in mg/mL; do not type the unit.

// query // solubility lookup, key: C[C@]12CC[C@H]3[C@@H](CCC4=CC(=O)CC[C@@]43C)[C@@H]1CC[C@@H]2O
// result 335

* * *

- procedure.details: Solubilities of active ingredients in carvacrol or carvacrol-containing (or thymol) formulations
- Type: physicochemical
- applied.conditions: solvent: Carvacrol
quantity: Dissolved amount (mg/mL)
Dear colleague, please return just the value in mg/mL, with no unit written.

// query State the recorded Dissolved amount for this entry: CCCCCCCCCCCC(=O)O [Lauric acid]
// result 500

// query Fill in: Dissolved amount of CC[C@H]1OC(=O)[C@H](C)[C@@H](O[C@H]2C[C@@](C)(OC)[C@@H](O)[C@H](C)O2)[C@H](C)[C@@H](O[C@@H]2O[C@H](C)C[C@H](N(C)C)[C@H]2O)[C@](C)(O)C[C@@H](C)C(=O)[C@H](C)[C@@H](O)[C@]1(C)O [Erythromycin] is ___
// result 110

// query I have this compound here, O=c1oc2c(O)c(O)cc3c(=O)oc4c(O)c(O)cc1c4c23 [Ellagic acid] , and I need its recorded Dissolved amount.
// result 60

// query Need Dissolved amount, item CC(=O)N1CCN(c2ccc(OCC3COC(Cn4ccnc4)(c4ccc(Cl)cc4Cl)O3)cc2)CC1 (centres unmarked) [Ketoconazole]
// result 140

* * *

- procedure.details: Solubilities of clotrimazole and testosterone in different solvents
- applied.conditions: organic solvent or mixture, Solubility, solvent: 20% Carvacrol/80% Acetone
quantity: solubility
The reply must contain the numeric value and, after it, the unit.

// query Entry under review: C[C@]12CC[C@H]3[C@@H](CCC4=CC(=O)CC[C@@]43C)[C@@H]1CC[C@@H]2O . Reported solubility?
// result 170 mg/mL

* * *

- procedure.details: Solubilities of clotrimazole and testosterone in different solvents
- applied.conditions: organic solvent or mixture, Solubility, solvent: 20% p-Cymene/80% Ethanol
quantity: solubility (mg/mL)
Give just the numeric value; mg/mL need not be written.

// query Please look up its solubility: C[C@]12CC[C@H]3[C@@H](CCC4=CC(=O)CC[C@@]43C)[C@@H]1CC[C@@H]2O
// result 300

* * *

- procedure.details: Solubilities of clotrimazole and testosterone in different solvents
- applied.conditions: organic solvent or mixture, Solubility, solvent: 20% (S)-(—)-Limonene/80% Ethanol
quantity: solubility (mg/mL)
Value expressed in mg/mL; do not type the unit.

// query What value of measured solubility is listed for C[C@]12CC[C@H]3[C@@H](CCC4=CC(=O)CC[C@@]43C)[C@@H]1CC[C@@H]2O [Testosterone] ?
// result 200

* * *

- procedure.details: Solubilities of clotrimazole and testosterone in different solvents
- applied.conditions: organic solvent or mixture, Solubility, solvent: 20% Anisole/80% EtOH
quantity: solubility (mg/mL)
Numbers only; they are read as mg/mL.

// query Query: solubility; subject: C[C@]12CC[C@H]3[C@@H](CCC4=CC(=O)CC[C@@]43C)[C@@H]1CC[C@@H]2O [Testosterone]
// result 500

* * *

- procedure.details: Solubilities of clotrimazole and testosterone in different solvents
- applied.conditions: organic solvent or mixture, Solubility, solvent: 4-Methyl-Anisole
quantity: solubility

// query Reported solubility, compound C[C@]12CC[C@H]3[C@@H](CCC4=CC(=O)CC[C@@]43C)[C@@H]1CC[C@@H]2O : ____
// result < 250 mg/mL
